# System: SK-MEL-28 melanoma
# method_summary: NCI tumour cell line growth inhibition, 48 h
Below, each entry is listed with its recorded TGI.
Entry rule: numbers only, all in µM.

The cases that follow already have their TGI on record.
C/C=C(/C)C(=O)O[C@H]1C[C@@H]2[C@@H](O)c3occ(C)c3C[C@]2(C)[C@@H](C)C1 :: 29.9
COC(=O)c1c(C)[nH]c(/C=C2\N=C(c3ccc[nH]3)C=C2OC)c1C :: 2.36
CCNc1cc2c(cc1O)CC[C@@H]1[C@@H]2CC[C@]2(C)[C@@H](O)CC[C@@H]12 :: 24.5
CC(C)(C)c1ccc(O)c(CN(Cc2cc(C(C)(C)C)ccc2O)c2ccccc2)c1 :: 32.4
CCc1oc2ccccc2c1C(=O)c1cc(I)c(O)c(I)c1 :: 21.6

Here is another molecule to look at.
// lookup TGI for `N#Cc1nc(C2=C(Cl)c3ccccc3OC2)[nH]c1C#N`
56.8

* * *

# Test system: SR leukemia
# method_summary: NCI tumour cell line growth inhibition, 48 h
Note to self: values exactly at 8 µM are True. So TGI at or above 8 µM is True, below is False.

COc1cc(/C=C2\CCCC3=C2NC(C)=NC3c2cc(OC)c(OC)c(OC)c2)cc(OC)c1OC (stereo not drawn) :: False
CN1C(=O)c2ccccc2NC(=O)C12O[C@@H]2c1cccc(O)c1 (stereo partly drawn) :: True
O=C(/C(=C/c1cccc([N+](=O)[O-])c1)c1ccccc1)c1ccccc1 :: True
c1ccc(CSP234N5CCN2CCN3CCN4CC5)c(CSP234N5CCN2CCN3CCN4CC5)c1 :: True
N#CCc1ccc(C(C#N)/C(CCCC(=O)Nc2cccc([N+](=O)[O-])c2)=N/NC(N)=S)cc1 (stereo not drawn) :: True
CCN(CC)CCCC(C)Nc1cnc(C(=O)Nc2cccc3ccc(OC)nc23)cn1 (stereo not drawn) :: False
C=C1CC[C@@H]2[C@](C)(COC(C)=O)[C@H](OC(C)=O)CC[C@@]2(C)[C@@H]1CC(Nc1ccc(S(=O)(=O)Nc2ncccn2)cc1)C1=CCOC1=O (stereo partly drawn) :: True
COc1cc2c(c(OC)c1OC)-c1c(cc3c(c1OC)OCO3)C1OC2C(C)C1C (stereo not drawn) (tested in a mixture with another compound) :: True
Clc1ccc(-c2c(C3=NCCCN3)nnn2-c2ccc(Cl)cc2)cc1 :: True
CCOC(=O)C(Cc1cn(S(=O)(=O)c2ccccc2)c2ccccc12)(NC(C)=O)C(=O)OCC :: True

Hello, I need to know if Cn1cnc([N+](=O)[O-])c1[Se]c1nc(N)nc2c1ncn2C1OC(CO)C(O)C1O (stereo not drawn) has measured TGI not below 8 µM. Thanks!
True

Next: C=C(CC[C@@H](C)[C@H]1CC[C@@]2(C)C3=C(CC[C@]12C)[C@@]1(C)CC[C@H](O)[C@@H](C)C1CC3)C(C)C (stereo partly drawn)
False

Do the same for COc1cc(/C=C2\CN(C)CC3=C2NC(=S)NC3c2cc(OC)c(OC)c(OC)c2)cc(OC)c1OC (stereo not drawn) please
True

Also `COc1cc2c3c(n(CCCCOC(=O)C(Cl)(Cl)Cl)c(=O)c2cc1OC)-c1cc2c(cc1C3=O)OCO2` , if possible.
True

Next up: COC(C(O)c1ccc2c(c1)OCO2)P(=O)(c1ccccc1)c1ccccc1 (stereo not drawn)
True

Here is the next compound: NC(CCC(=O)O)C(=O)N1CCN(c2nc(N3CCCC3)c3nc(Cl)c(NCc4ccccc4)nc3n2)CC1 (stereo not drawn)
True

Lookup O=C1C(Cl)C(c2cccc(Cl)c2)N1c1ccc(-n2c(=S)[nH]c3ccccc3c2=O)cc1 (stereo not drawn)
True

Also, `COc1ccc(O)c(/C(C)=N/NC(=S)N(C)C)c1` please.
True
